Provenance of the data: paper PMC11742280

assay: Plasma pharmacokinetics of belinostat and belinostat glucuronide (LC/MS/MS, noncompartmental analysis); conditions: human, plasma, iv, T1/2, cycle 1 day 1; dose level 3, belinostat 800 mg/m^2 IV (pevonedistat 37 mg/m^2); n=2, actual values
QUANTITY KIND: half-life (h)
Provide the reading as a plain figure in h.

Req: Name the recorded half-life of the compound listed here: O=C(/C=C/c1cccc(S(=O)(=O)Nc2ccccc2)c1)NO
Resp: 1.12

* * *

experiment: Plasma pharmacokinetics of belinostat and belinostat glucuronide (LC/MS/MS, noncompartmental analysis); conditions: human, plasma, iv, AUCINF, cycle 1 day 1; dose level 2, belinostat 800 mg/m^2 IV (pevonedistat 25 mg/m^2); mean±SD, n=3
QUANTITY KIND: AUC(0-inf) (µM·h)
Provide the reading as a plain figure in µM·h.

Req: Name the recorded AUC(0-inf) of the compound listed here: O=C(/C=C/c1cccc(S(=O)(=O)Nc2ccccc2)c1)NO [Belinostat]
Resp: 64.7
